# systemName: Nociceptin receptor (Homo sapiens, UniProt P41146)
# Sequence (P41146 whole entry): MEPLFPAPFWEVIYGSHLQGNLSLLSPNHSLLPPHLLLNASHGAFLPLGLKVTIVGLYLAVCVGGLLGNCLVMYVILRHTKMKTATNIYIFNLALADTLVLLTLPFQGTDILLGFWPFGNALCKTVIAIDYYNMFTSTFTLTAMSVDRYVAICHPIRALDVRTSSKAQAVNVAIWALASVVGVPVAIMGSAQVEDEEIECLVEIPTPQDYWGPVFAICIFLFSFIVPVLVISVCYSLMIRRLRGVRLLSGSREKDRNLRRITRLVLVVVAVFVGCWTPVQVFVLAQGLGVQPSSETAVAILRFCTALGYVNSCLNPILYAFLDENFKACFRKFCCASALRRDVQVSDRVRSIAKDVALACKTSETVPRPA
# testMethodNotes: Antagonist activity at human ORL1 receptor expressed in CHO cell membrane by [35S]GTP-gamma-S binding assay
# Format: functional, cell membranes
assayEndpoint: IC50 (nM)

smi	assayEndpoint	val
CCC(CC)Sc1nc2cc(F)c(N3CCNCC3)cc2[nH]1	IC50	690
CCC(CC)Sc1nc2cc(C#N)c(N3CCNCC3)cc2[nH]1	IC50	78
Fc1cc2nc(SCc3cccc(Cl)c3Cl)[nH]c2cc1N1CCNCC1	IC50	140

----------
# systemName: UniProtKB P41145
# Sequence (P41145 whole entry): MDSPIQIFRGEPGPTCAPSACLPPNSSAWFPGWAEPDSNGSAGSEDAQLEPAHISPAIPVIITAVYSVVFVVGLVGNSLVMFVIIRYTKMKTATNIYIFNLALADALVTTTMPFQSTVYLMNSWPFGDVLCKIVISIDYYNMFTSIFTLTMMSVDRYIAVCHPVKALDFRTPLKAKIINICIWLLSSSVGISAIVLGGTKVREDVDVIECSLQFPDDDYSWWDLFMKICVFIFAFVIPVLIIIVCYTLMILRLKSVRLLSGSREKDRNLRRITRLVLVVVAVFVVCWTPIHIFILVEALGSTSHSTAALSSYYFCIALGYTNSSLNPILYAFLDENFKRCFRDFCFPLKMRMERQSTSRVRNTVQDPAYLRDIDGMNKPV
# testMethodNotes: Displacement of [3H]U-69593 from human cloned kappa opioid receptor expressed in CHO cell membrane
# Type: cell membranes
assayEndpoint: IC50 (µM)

smi	val
CCC(C)(C)Sc1nc2cc(Cl)c(N3CCN(CCO)CC3)cc2[nH]1	0.16
CC1(Sc2nc3cc(Cl)c(N4CCN(CCO)CC4)cc3[nH]2)CCCCC1	0.088
CC(C)(C)Sc1nc2cc(Cl)c(N3CCN(CCO)CC3)cc2[nH]1	0.12
